The measured values listed here are drawn from patent US20170210813A1.

- ASSAYED TARGET: T1, Macaca fascicularis PDGFRb.mmh (Macaca fascicularis)
- T1 construct: Soluble monomeric construct; also called mfPDGFRb.mmh
- T1 chain: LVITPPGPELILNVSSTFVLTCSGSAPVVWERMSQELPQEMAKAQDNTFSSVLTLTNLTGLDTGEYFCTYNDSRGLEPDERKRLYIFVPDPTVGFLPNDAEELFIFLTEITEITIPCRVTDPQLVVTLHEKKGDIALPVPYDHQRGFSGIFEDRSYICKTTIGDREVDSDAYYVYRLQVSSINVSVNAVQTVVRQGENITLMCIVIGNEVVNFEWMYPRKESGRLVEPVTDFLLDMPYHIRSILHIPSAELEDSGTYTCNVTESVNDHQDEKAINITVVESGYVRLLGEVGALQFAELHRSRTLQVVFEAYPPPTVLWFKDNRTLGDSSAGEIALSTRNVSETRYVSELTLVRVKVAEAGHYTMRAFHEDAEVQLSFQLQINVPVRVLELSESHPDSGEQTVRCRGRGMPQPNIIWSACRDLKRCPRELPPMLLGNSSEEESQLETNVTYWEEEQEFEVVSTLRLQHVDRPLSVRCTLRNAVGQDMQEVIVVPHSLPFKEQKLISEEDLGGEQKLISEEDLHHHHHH
- ASSAY PROCEDURE: SPR, mAb captured, 37 C
binders and their reported kon
Write the answer as a number in M⁻¹ s⁻¹, unit excluded.

BINDER: H4H3104S (antibody, human IgG4, V domains shown, human IgG4 Fc (H4H prefix)) VH: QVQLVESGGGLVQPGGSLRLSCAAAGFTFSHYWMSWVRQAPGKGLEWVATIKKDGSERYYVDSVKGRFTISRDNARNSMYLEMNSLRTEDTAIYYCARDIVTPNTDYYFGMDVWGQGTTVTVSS VL: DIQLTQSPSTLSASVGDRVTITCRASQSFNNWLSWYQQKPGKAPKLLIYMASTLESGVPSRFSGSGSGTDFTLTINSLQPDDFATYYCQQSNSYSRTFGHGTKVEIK
kon / M⁻¹ s⁻¹: 740000

Value of measured kon for the entry H4H3094P (antibody, human IgG4, V domains shown, also called H4H3394P) VH: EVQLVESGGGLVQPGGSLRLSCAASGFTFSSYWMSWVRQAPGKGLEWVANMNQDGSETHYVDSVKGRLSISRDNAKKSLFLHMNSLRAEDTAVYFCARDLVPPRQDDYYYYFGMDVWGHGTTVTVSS VL: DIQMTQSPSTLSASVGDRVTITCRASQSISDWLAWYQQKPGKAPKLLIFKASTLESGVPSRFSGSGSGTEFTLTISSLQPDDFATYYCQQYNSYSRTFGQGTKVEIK : 253000
